Quick reference: Primary in vitro Activity (MIC) of the listed items.
tested on: Past. mult 59A006; assay: in vitro MIC, Inocula Replicating Device, anaerobic Gas Pac, BHI agar; assay type: cell-based; details: unit assumed
VALUE_KIND: Primary in vitro Activity (MIC) (µg/mL)

INSERT INTO assay_data (compound_smiles, measurement_target, value_kind, reading) VALUES
  ('CC(=O)c1c(COC(=O)c2cccc(O)c2)[n+]([O-])c2ccccc2[n+]1[O-]', 'Past. mult 59A006', 'Primary in vitro Activity (MIC)', 25),
  ('CC(=O)c1c(COC(=O)CCc2ccc(O)cc2)[n+]([O-])c2ccccc2[n+]1[O-]', 'Past. mult 59A006', 'Primary in vitro Activity (MIC)', 12.5),
  ('CC(=O)c1c(COC(=O)c2ccc(O)cc2)[n+]([O-])c2ccccc2[n+]1[O-]', 'Past. mult 59A006', 'Primary in vitro Activity (MIC)', 25),
  ('CC(=O)c1c(COC(=O)Cc2ccc(O)cc2)[n+]([O-])c2ccccc2[n+]1[O-]', 'Past. mult 59A006', 'Primary in vitro Activity (MIC)', 6.25),
  ('O=C(Cc1ccc(O)cc1)OCc1c(CO)[n+]([O-])c2ccccc2[n+]1[O-]', 'Past. mult 59A006', 'Primary in vitro Activity (MIC)', 25),
  ('O=C(CCc1ccc(O)cc1)OCc1c(CO)[n+]([O-])c2ccccc2[n+]1[O-]', 'Past. mult 59A006', 'Primary in vitro Activity (MIC)', 50),
  ('O=C(C=Cc1ccc(O)cc1)OCc1c(CO)[n+]([O-])c2ccccc2[n+]1[O-]', 'Past. mult 59A006', 'Primary in vitro Activity (MIC)', 25),
  ('O=C(Cc1ccc(O)cc1)OCc1c[n+]([O-])c2ccccc2[n+]1[O-]', 'Past. mult 59A006', 'Primary in vitro Activity (MIC)', 12.5),
  ('O=C(OCc1c(CO)[n+]([O-])c2ccccc2[n+]1[O-])c1ccc(O)cc1', 'Past. mult 59A006', 'Primary in vitro Activity (MIC)', 12.5),
  ('O=C(CCc1ccc(O)cc1)OCc1c[n+]([O-])c2ccccc2[n+]1[O-]', 'Past. mult 59A006', 'Primary in vitro Activity (MIC)', 50);

----------
tested on: Staph. aureus 01A106; test: in vitro MIC, Inocula Replicating Device, anaerobic Gas Pac, BHI agar; type: cell-based; details: unit assumed
Quick reference: Primary in vitro Activity (MIC) of the listed items.
VALUE_KIND: Primary in vitro Activity (MIC) (µg/mL)

INSERT INTO results (compound_smiles, reading) VALUES
  ('CC(=O)c1c(COC(=O)Cc2ccc(O)cc2)[n+]([O-])c2ccccc2[n+]1[O-]', 1.56),
  ('O=C(OCc1c(CO)[n+]([O-])c2ccccc2[n+]1[O-])c1ccc(O)cc1', 3.2),
  ('CC(=O)c1c(COC(=O)c2cccc(O)c2)[n+]([O-])c2ccccc2[n+]1[O-]', 6.25),
  ('O=C(CCc1ccc(O)cc1)OCc1c[n+]([O-])c2ccccc2[n+]1[O-]', 12.5);

----------
Quick reference: Primary in vitro Activity (MIC) of the listed items.
test system: Sal. cholsu 58B242; assay: in vitro MIC, Inocula Replicating Device, anaerobic Gas Pac, BHI agar; format: cell-based; settings: unit assumed
VALUE_KIND: Primary in vitro Activity (MIC) (µg/mL)

INSERT INTO measurements (compound_smiles, measurement_target, rel, reading) VALUES
  ('O=C(Cc1ccc(O)cc1)OCc1c(CO)[n+]([O-])c2ccccc2[n+]1[O-]', 'Sal. cholsu 58B242', '=', 25),
  ('O=C(OCc1c(CO)[n+]([O-])c2ccccc2[n+]1[O-])c1ccc(O)cc1', 'Sal. cholsu 58B242', '=', 50),
  ('O=C(C=Cc1ccc(O)cc1)OCc1c(CO)[n+]([O-])c2ccccc2[n+]1[O-]', 'Sal. cholsu 58B242', '=', 25),
  ('CC(=O)c1c(COC(=O)c2cccc(O)c2)[n+]([O-])c2ccccc2[n+]1[O-]', 'Sal. cholsu 58B242', '<', 100),
  ('O=C(CCc1ccc(O)cc1)OCc1c(CO)[n+]([O-])c2ccccc2[n+]1[O-]', 'Sal. cholsu 58B242', '=', 100),
  ('O=C(Cc1ccc(O)cc1)OCc1c[n+]([O-])c2ccccc2[n+]1[O-]', 'Sal. cholsu 58B242', '=', 12.5),
  ('CC(=O)c1c(COC(=O)c2ccc(O)cc2)[n+]([O-])c2ccccc2[n+]1[O-]', 'Sal. cholsu 58B242', '=', 50),
  ('CC(=O)c1c(COC(=O)Cc2ccc(O)cc2)[n+]([O-])c2ccccc2[n+]1[O-]', 'Sal. cholsu 58B242', '=', 50),
  ('O=C(CCc1ccc(O)cc1)OCc1c[n+]([O-])c2ccccc2[n+]1[O-]', 'Sal. cholsu 58B242', '=', 50),
  ('CC(=O)c1c(COC(=O)CCc2ccc(O)cc2)[n+]([O-])c2ccccc2[n+]1[O-]', 'Sal. cholsu 58B242', '=', 50);
